Heads up, these molecules all have Ki values measured for UniProt:P33534.
Sequence (P33534 whole entry): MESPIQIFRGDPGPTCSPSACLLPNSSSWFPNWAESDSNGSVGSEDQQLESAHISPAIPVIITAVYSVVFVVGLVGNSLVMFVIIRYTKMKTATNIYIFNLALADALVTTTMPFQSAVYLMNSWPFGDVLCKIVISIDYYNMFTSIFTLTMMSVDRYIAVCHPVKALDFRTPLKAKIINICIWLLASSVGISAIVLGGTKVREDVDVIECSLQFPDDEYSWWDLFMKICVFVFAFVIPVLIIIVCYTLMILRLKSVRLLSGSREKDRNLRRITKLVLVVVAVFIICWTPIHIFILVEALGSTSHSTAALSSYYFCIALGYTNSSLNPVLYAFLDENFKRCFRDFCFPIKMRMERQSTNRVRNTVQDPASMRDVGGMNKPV
Answers are plain numbers, in nM.

query: Request the reported Ki associated with "CC[C@@H]1CN2CC[C@]3(Nc4cccc(C#N)c4C3=O)[C@@H]2C[C@@H]1/C(=C\OC)C(=O)OC"
result: 47

query: Request the reported Ki associated with "CC[C@@H]1CN2CC[C@]3(Nc4cccc(-c5ccoc5)c4C3=O)[C@@H]2C[C@@H]1/C(=C\OC)C(=O)OC"
result: 39

query: Request the reported Ki associated with "CC[C@@H]1CN2CC[C@]3(Nc4cccc(OC)c4C3=O)[C@@H]2C[C@@H]1/C(=C\OC)C(=O)OC"
result: 24

Dear colleague, could you please provide Ki for the molecules listed below?
1. CC[C@@H]1CN2CC[C@]3(Nc4ccccc4C3=O)[C@@H]2C[C@@H]1/C(=C\OC)C(=O)OC
2. CC[C@@H]1CN2CC[C@]3(Nc4cccc(-c5ccccc5)c4C3=O)[C@@H]2C[C@@H]1/C(=C\OC)C(=O)OC
3. CC[C@@H]1CN2CC[C@@]3(C(=O)c4c(OC)cccc4N3Cc3ccccc3)[C@@H]2C[C@@H]1/C(=C\OC)C(=O)OC
4. CC[C@@H]1CN2CC[C@]3(Nc4cccc(OC(C)=O)c4C3=O)[C@@H]2C[C@@H]1/C(=C\OC)C(=O)OC
5. CC[C@@H]1CN2CC[C@]3(Nc4cccc(O)c4C3=O)[C@@H]2C[C@@H]1/C(=C\OC)C(=O)OC

result:
19
51
136
31
170
